TARGET_OF_ASSAY: α1A Human Adrenergic Receptor (Homo sapiens, UniProt P25100)
Construct: The entire coding region of α1A (1719 bp); expressed in transfected cells
Sequence (P25100 whole entry): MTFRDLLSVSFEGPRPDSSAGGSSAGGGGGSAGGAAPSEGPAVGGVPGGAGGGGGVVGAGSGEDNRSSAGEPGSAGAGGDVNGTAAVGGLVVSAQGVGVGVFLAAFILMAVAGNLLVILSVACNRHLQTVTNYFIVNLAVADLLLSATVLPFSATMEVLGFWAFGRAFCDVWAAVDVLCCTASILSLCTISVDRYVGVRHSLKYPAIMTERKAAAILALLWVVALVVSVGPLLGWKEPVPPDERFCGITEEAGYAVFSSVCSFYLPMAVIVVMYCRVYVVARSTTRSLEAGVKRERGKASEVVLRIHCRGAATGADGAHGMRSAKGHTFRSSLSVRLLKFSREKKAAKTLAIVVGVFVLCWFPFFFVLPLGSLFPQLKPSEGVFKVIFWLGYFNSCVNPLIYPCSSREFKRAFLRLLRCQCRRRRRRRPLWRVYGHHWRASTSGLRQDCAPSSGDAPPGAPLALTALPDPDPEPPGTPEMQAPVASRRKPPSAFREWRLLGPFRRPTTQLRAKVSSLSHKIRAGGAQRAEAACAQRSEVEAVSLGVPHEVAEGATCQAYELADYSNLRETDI
ASSAY_EXPLANATION: Radioligand binding, [3H]prazosin, cloned human α1A adrenergic receptor
COND: pKi alpha-1 1a, [3H]prazosin, cloned human α1A receptor, LM(tk−) cell membranes
Where a name gives a salt, the structure may show the parent alone.
MEASUREMENT_KIND: Ki (nM)
Numeric only. Scale: nM

Lookup result for CCNC(=O)C1=C(CC)NC(CC)=C(C(=O)NCCCN2CCC(c3ccccc3)(c3ccccc3)CC2)C1c1ccc([N+](=O)[O-])cc1 (stereo not drawn) ; measured Ki: 676

Short answer for CC1=C(C(=O)NCCCN2CCC(c3ccccc3)(c3ccccc3)CC2)C(c2ccc([N+](=O)[O-])cc2)C(C(=O)NC(C)C)=C(C)N1 (stereo not drawn) : Ki was 1320

GET /value?item= CCC1=C(C(=O)NC)C(c2ccc([N+](=O)[O-])cc2)C(C(=O)NCCCN2CCC(c3ccccc3)(c3ccccc3)CC2)=C(CC)N1 (stereo not drawn) &field=Ki returns 977

# Ki of CCC1=C(C(=O)NCCCN2CCC(c3ccccc3)(c3ccccc3)CC2)C(c2ccc([N+](=O)[O-])cc2)C(C(=O)NC(C)C)=C(CC)N1 (stereo not drawn) = 776

get_value(item= COc1ccc(C2(c3ccccc3)CCN(CCCNC(=O)C3=C(C)NC(C)=C(C(N)=O)C3c3ccc([N+](=O)[O-])cc3)CC2)cc1 (stereo not drawn) [Example 98, hydrochloride] , readout=Ki) returns 1100

In plain terms, CCCC1=C(C(=O)O)C(c2ccc([N+](=O)[O-])cc2)C(C(=O)NCCCN2CCC(c3ccccc3)(c3ccccc3)CC2)=C(CCC)N1 (stereo not drawn) has a documented Ki of 1320
